For each of the compounds below, state its IC50.
- System: MES-SA/Dx5 cells
- Experiment: PrestoBlue viability assay, MES-SA/Dx5 cells (MDR, P-gp positive)
- Condition Notes: Homo sapiens, MES-SA/Dx5, 72 h, read-out: IC50 / μM MES-SA/Dx5, absence of TQ; 72 h incubation

Previously resolved entries follow.
- Structure Smiles String: "CCN1CCN(Cc2cc(OC)ccc2O)CC1"
  IC50: "> 100 µM"
- Structure Smiles String: "COc1ccc(C(C)=O)cc1CN1CCCCC1"
  IC50: "> 100 µM"
- Structure Smiles String: "COc1ccc(O)c(CN2CCN(C)CC2)c1"
  IC50: "> 100 µM"

Please examine the following record next.
Input "CC(=O)c1ccc(O)c(CN2CCCCC2)c1" . Output IC50: > 100 µM

###

Kindly state pKa for each of the entries shown.
- Experiment: UV-visible spectrophotometric titrations (pKa)
- Type: physicochemical
- Condition Notes: water with 0.2% (v/v) DMSO, 0.2% DMSO, 25 °C, I = 0.10 M KCl, read-out: pKa (OH), experimentally determined

- Compound: "Oc1ccc(CN2CCN(c3ccccc3)CC2)c2cccnc12 [Compound 57]"
  Recorded Measurement: 8.88
- Compound: "CC(C)OCc1cc(CN2CCCCC2)c(O)c2ncccc12 [Compound 24]"
  Recorded Measurement: 7.66
- Compound: "COCc1ccc(O)c2ncccc12 [Compound 14]"
  Recorded Measurement: 9.43
- Compound: "Oc1ccc(CN2CCCCC2)c2cccnc12 [Compound 47]"
  Recorded Measurement: 8.45
- Compound: "Oc1c(CN2CCCCC2)cc(Br)c2cccnc12 [Compound 20]"
  Recorded Measurement: 7.16

Measured pKa, Oc1c(CN2CCCc3ccccc32)ccc2cccnc12 [Compound 79] : 9.98

###

- Tested on: MES-SA/Dx5 cells
- Experiment: PrestoBlue viability assay, MES-SA/Dx5 cells (MDR, P-gp positive)
- Condition Notes: Homo sapiens, MES-SA/Dx5, 72 h, read-out: IC50 / μM MES-SA/Dx5, absence of TQ; 72 h incubation
Assay Endpoint: log10 IC50 (log10 of the value in µM)
Short version: log10 scale, IC50, µM.

// below: answered compounds
- Compound: "Oc1c(C(c2cccnc2)N2CCCC2)ccc2cccnc12 (stereo not shown)"
  log10 IC50: 1.37
- Compound: "CCN(CC)Cc1ccc2cccnc2c1O"
  log10 IC50: 0.21
- Compound: "Oc1c(CN2CCN(c3ccc(F)cc3)CC2)cc(Cl)c2cccnc12"
  log10 IC50: -0.60
- Compound: "CCOCc1cc(CN2CCN(C)CC2)c(O)c2ncccc12"
  log10 IC50: 0.87
- Compound: "CN1CCN(Cc2cc(Cl)c3cccnc3c2O)CC1"
  log10 IC50: 0.20

I need log10 IC50 for every entry listed below, if you could help.
1. CCN1CCN(C(c2cccs2)c2ccc3cccnc3c2O)CC1 (stereo not shown)
2. Oc1c(C(c2ccncc2)N2CCCC2)ccc2cccnc12 (stereo not shown)
3. COCc1cc(CN2CCCCC2)c(O)c2ncccc12
4. Oc1ccc(CN2CCOCC2)c2cccnc12

Ans:
1.15
0.56
-0.04
0.98

For each entry beneath this line, provide reported log10 IC50.
1. Oc1ccc(Cl)c2cccnc12 [Compound 13, reference compound]
2. Oc1c(CN2CCOCC2)cc(Br)c2cccnc12
3. Oc1ccc(CN2CCCCC2)c2cccnc12
4. Cc1ccccc1N1CCN(Cc2ccc(O)c3ncccc23)CC1
5. CN1CCN(Cc2cnc3ccccc3c2O)CC1

Ans:
0.71
-0.34
0.64
0.48
1.96

Where these numbers come from: paper PMC9189845
